This collection of values is drawn from patent US20150203579A1.

- Tgt: T1, dimeric biotinylated human PD-1 protein with a C-terminal human Fc tag (human, biotinylated (sites not given))
- T1 construct: also called biot-hPD-1-hFc
- Protocol Details: competition ELISA: 200 pM biot-hPD-1-hFc to coated hPD-L1-mFc; * below theoretical bottom 1.0E-10 M
Metric Name: IC50 (nM)
Numbers only here, please. The scale is nM.

The reported IC50 of the binder H1M7799N (antibody, V domains shown, human variable regions, mouse IgG1 Fc) VH: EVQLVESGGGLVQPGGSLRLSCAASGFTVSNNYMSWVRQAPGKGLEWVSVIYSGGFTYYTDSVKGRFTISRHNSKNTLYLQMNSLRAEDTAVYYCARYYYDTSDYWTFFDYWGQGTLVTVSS VL: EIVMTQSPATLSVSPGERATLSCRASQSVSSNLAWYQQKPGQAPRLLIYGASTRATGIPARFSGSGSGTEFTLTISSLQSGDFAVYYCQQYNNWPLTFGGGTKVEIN was 0.059

The reported IC50 of the binder H1M7800N (antibody, V domains shown, human variable regions, mouse IgG1 Fc) VH: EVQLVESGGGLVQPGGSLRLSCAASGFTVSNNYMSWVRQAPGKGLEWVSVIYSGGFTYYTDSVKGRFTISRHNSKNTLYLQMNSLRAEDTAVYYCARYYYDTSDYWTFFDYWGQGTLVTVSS VL: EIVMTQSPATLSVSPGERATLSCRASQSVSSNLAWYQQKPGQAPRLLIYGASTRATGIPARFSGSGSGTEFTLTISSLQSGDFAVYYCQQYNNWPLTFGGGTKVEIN was 0.065

The reported IC50 of the binder H2aM7780N (antibody, V domains shown, human variable regions, mouse IgG2a Fc; also called H2M7780N) VH: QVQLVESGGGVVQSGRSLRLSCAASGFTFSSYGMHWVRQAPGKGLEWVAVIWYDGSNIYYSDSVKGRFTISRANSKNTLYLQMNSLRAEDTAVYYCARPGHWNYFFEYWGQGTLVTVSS VL: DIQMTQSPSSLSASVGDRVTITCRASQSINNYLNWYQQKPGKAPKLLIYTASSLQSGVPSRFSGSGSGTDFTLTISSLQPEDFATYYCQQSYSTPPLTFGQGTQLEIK was 0.091

The reported IC50 of the binder H2aM7798N (antibody, V domains shown, human variable regions, mouse IgG2a Fc; also called H2M7798N) VH: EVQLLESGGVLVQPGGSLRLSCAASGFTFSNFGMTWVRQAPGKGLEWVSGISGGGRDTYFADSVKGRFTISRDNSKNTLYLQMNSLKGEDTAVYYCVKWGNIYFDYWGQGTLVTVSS VL: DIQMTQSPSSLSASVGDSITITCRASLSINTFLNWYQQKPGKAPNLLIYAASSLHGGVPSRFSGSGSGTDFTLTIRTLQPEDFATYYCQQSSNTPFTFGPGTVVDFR was 0.073
